Numbers sourced from patent US20200171136A1.

# assaySystem: Endoplasmic reticulum aminopeptidase 1 (ERAP1) (UniProt Q9NZ08 1-941, limits assumed)
# Sequence (Q9NZ08 whole entry): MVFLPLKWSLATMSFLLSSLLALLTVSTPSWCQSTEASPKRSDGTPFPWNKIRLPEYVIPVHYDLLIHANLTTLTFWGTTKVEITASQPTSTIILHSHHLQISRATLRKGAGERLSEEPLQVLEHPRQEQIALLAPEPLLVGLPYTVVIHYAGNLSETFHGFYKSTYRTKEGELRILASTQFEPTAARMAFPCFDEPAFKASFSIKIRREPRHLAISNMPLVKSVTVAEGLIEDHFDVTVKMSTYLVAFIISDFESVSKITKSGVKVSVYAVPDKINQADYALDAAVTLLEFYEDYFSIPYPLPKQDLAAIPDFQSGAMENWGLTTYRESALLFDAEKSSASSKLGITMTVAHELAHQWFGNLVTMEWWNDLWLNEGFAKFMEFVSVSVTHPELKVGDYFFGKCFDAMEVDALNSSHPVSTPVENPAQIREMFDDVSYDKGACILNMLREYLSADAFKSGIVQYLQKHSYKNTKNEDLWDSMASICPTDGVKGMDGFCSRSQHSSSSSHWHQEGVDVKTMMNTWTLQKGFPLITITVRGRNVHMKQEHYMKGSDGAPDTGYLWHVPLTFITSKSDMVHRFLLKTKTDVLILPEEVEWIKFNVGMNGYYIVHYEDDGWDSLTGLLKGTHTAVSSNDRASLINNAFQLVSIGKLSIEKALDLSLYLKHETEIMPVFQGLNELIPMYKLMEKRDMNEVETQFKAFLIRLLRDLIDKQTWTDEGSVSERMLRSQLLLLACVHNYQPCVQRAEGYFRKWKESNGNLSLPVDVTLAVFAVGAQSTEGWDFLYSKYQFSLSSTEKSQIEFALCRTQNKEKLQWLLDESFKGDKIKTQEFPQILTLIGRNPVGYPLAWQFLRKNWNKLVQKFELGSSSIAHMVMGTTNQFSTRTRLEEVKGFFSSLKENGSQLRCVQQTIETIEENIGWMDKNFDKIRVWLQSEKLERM
# assayMethodText: cell-based or functional assay
quantityName: formation rate of … (SEQ ID NO: 19)(%)
Only the number, expressed in %, is required.

In the examples that follow, each entry is paired with its recorded formation rate of … (SEQ ID NO: 19)(%).
{"binder": "NCGLYDGMEHL [peptide NCGLYDGMEHL (SEQ ID NO: 187)]", "quantityName": "formation rate of … (SEQ ID NO: 19)(%)", "resultValue": 18.2}
{"binder": "ECGLYDGMEHL [peptide ECGLYDGMEHL (SEQ ID NO: 189)]", "quantityName": "formation rate of … (SEQ ID NO: 19)(%)", "resultValue": 2.9}
{"binder": "FCGLYDGMEHL [peptide FCGLYDGMEHL (SEQ ID NO: 196)]", "quantityName": "formation rate of … (SEQ ID NO: 19)(%)", "resultValue": 17.6}
{"binder": "HCGLYDGMEHL [peptide HCGLYDGMEHL (SEQ ID NO: 191)]", "quantityName": "formation rate of … (SEQ ID NO: 19)(%)", "resultValue": 0}
{"binder": "KCGLYDGMEHL [peptide KCGLYDGMEHL (SEQ ID NO: 194)]", "quantityName": "formation rate of … (SEQ ID NO: 19)(%)", "resultValue": 0}

Now for another entry.
Lookup: Give the reported formation rate of … (SEQ ID NO: 19)(%) for this binder. DCGLYDGMEHL [peptide DCGLYDGMEHL (SEQ ID NO: 188)]
Found: 3.2
